Please respond with reported half-life for every item in the list.
Experiment: In vivo pharmacokinetics after intravenous administration to rats
Details: rat; 5 mg/kg intravenous bolus injection, male Sprague-Dawley rats, plasma
Positions of bridges follow the written chain, without caps; N, C: chain ends. Non-standard residues stand in square brackets, D forms with d. Residues, ends and D or L forms follow the SMILES beside them.
Answers are plain numbers, in min.

compound	half-life, min
C[C@H](O)[C@@H](NC(=O)[C@H]1CSSC[C@@H](NC(=O)[C@@H](C)NC(=O)[C@@H](CCC(=O)O)NC(=O)[C@@H](CCCCN)NC(=O)[C@H](N)CO)C(=O)NCC(=O)NCC(=O)N[C@H](CCCCN)C(=O)N1)C(=O)N[C@H](CCC(=O)O)C(=O)NCC(=O)O [Compound 12, SKEACGGKCTEG] (H-[dS][dK][dE][dA][dC]GG[dK][dC][dT][dE]G-OH; disulfide 5-9; N-terminus and C-terminus assumed)	19.7
C[C@@H](NC(=O)[C@@H](CCC(=O)O)NC(=O)[C@H](N)CCCCN)C(=O)N[C@@H]1CSSC[C@H](C(=O)N[C@H](CCC(=O)O)C(=O)N[C@H](CCC(=O)O)C(=O)O)NC(=O)[C@@H](CCCNC(=N)N)NC(=O)[C@@H](C)NC1=O [Compound 14, KEACARCEE] (H-[dK][dE][dA][dC][dA][dR][dC][dE][dE]-OH; disulfide 4-7; N-terminus and C-terminus assumed)	18.4
C[C@H](O)[C@@H](N)C(=O)N[C@H](CCCCN)C(=O)N[C@H](CCC(=O)O)C(=O)N[C@H](C)C(=O)N[C@@H]1CSSC[C@H](C(=O)N[C@H](CCC(=O)O)C(=O)N[C@H](CCC(=O)O)C(=O)NCC(=O)O)NC(=O)[C@@H](CCCNC(=N)N)NC(=O)[C@@H](C)NC1=O	24.5

Okay, next one:
Qu. Query (compound): C[C@H](O)[C@@H](NC(=O)[C@H]1CSSC[C@@H](NC(=O)[C@@H](C)NC(=O)[C@H](N)CCC(=O)O)C(=O)NCC(=O)N[C@H](CCCCN)C(=O)N1)C(=O)N[C@H](CCC(=O)O)C(=O)O ; field requested: half-life
Ans. 20.5

---

Experiment: In vivo pharmacokinetics after intravenous administration to rats
Conditions: rat; 5 mg/kg intravenous bolus injection, male Sprague-Dawley rats, plasma
measured-property: MRT
Answer format reminder: number followed by unit.

Qu. Query (compound): C[C@H](O)[C@@H](N)C(=O)N[C@H](CCCCN)C(=O)N[C@H](CCC(=O)O)C(=O)N[C@H](C)C(=O)N[C@@H]1CSSC[C@H](C(=O)N[C@H](CCC(=O)O)C(=O)N[C@H](CCC(=O)O)C(=O)NCC(=O)O)NC(=O)[C@@H](CCCNC(=N)N)NC(=O)[C@@H](C)NC1=O [Compound 6, TKEACARCEEG] ; field requested: MRT
Ans. 29.4 min

---

Assay: In vivo pharmacokinetics after intravenous administration to rats
Conditions: rat; 5 mg/kg intravenous bolus injection, male Sprague-Dawley rats, plasma; read-out: CI
Positions of bridges follow the written chain, without caps; N, C: chain ends. Non-standard residues stand in square brackets, D forms with d. Residues, ends and D or L forms follow the SMILES beside them.
measured-property: clearance
Answer format reminder: number followed by unit.

Reference set, count: 3
molecule	measured-property	value-reported
C[C@H](O)[C@@H](NC(=O)[C@H]1CSSC[C@@H](NC(=O)[C@@H](C)NC(=O)[C@@H](CCC(=O)O)NC(=O)[C@@H](CCCCN)NC(=O)[C@H](N)CO)C(=O)NCC(=O)NCC(=O)N[C@H](CCCCN)C(=O)N1)C(=O)N[C@H](CCC(=O)O)C(=O)NCC(=O)O [Compound 12, SKEACGGKCTEG] (H-[dS][dK][dE][dA][dC]GG[dK][dC][dT][dE]G-OH; disulfide 5-9; N-terminus and C-terminus assumed)	clearance	19.5 mL/min/kg
C[C@H](O)[C@@H](N)C(=O)N[C@H](CCCCN)C(=O)N[C@H](CCC(=O)O)C(=O)N[C@H](C)C(=O)N[C@@H]1CSSC[C@H](C(=O)N[C@H](CCC(=O)O)C(=O)N[C@H](CCC(=O)O)C(=O)NCC(=O)O)NC(=O)[C@@H](CCCNC(=N)N)NC(=O)[C@@H](C)NC1=O	clearance	5.69 mL/min/kg
C[C@@H](NC(=O)[C@@H](CCC(=O)O)NC(=O)[C@H](N)CCCCN)C(=O)N[C@@H]1CSSC[C@H](C(=O)N[C@H](CCC(=O)O)C(=O)N[C@H](CCC(=O)O)C(=O)O)NC(=O)[C@@H](CCCNC(=N)N)NC(=O)[C@@H](C)NC1=O [Compound 14, KEACARCEE] (H-[dK][dE][dA][dC][dA][dR][dC][dE][dE]-OH; disulfide 4-7; N-terminus and C-terminus assumed)	clearance	11.4 mL/min/kg

Okay, next one:
Qu. Query (molecule): C[C@H](O)[C@@H](NC(=O)[C@H]1CSSC[C@@H](NC(=O)[C@@H](C)NC(=O)[C@H](N)CCC(=O)O)C(=O)NCC(=O)N[C@H](CCCCN)C(=O)N1)C(=O)N[C@H](CCC(=O)O)C(=O)O ; field requested: clearance
Ans. 4.57 mL/min/kg
